What follows is a collection of IC50 values obtained with BRD2 (Homo sapiens, UniProt P25440).
Sequence (P25440 whole entry): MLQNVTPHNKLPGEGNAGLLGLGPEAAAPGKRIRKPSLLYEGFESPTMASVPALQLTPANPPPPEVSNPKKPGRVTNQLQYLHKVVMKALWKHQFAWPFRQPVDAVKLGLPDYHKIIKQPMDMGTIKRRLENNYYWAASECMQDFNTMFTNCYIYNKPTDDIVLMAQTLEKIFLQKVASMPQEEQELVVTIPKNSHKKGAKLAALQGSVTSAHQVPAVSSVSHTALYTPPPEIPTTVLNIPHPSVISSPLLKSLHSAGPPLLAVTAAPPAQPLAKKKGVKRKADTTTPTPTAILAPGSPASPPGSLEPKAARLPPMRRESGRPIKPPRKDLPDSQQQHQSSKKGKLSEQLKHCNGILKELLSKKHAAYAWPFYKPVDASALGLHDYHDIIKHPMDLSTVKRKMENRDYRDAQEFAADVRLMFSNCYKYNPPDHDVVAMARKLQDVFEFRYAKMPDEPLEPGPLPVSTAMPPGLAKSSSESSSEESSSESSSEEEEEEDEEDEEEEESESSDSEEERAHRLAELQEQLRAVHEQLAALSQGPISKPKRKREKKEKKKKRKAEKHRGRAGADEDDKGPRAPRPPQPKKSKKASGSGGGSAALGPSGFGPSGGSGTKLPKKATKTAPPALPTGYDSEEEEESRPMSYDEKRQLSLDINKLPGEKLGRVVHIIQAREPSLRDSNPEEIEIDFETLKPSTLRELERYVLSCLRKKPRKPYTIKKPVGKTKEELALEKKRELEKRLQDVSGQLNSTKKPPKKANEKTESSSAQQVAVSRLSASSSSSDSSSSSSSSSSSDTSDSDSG
Answer with a number only, understood to be in nM.

| Compound | Unit info | IC50 |
| --- | --- | --- |
| COc1cc(Nc2nc(Nc3ccc(N4CCN(C)CC4)cc3)ncc2C)ccc1Cl | nM | 2800 |

Note: attention shifts to another entry.
Q) What IC50 value was documented for this compound, Cc1cnc(Nc2ccc(N3CCN(C)CC3)cc2)nc1Nc1ccc(Cl)c(NS(=O)(=O)C(C)(C)C)c1 [drawing 109] ?
A) 81.4

====

Measurement target: BRD4 (Homo sapiens)
Assay summary: BRD4 IC50 (RB, commercial BRD panel)
Assay type: binding
Condition notes: read-out: BRD4 IC50 (RB)
Parameter: IC50 (nM)
Answer with a number only, understood to be in nM.

Q) What IC50 value was documented for this molecule, COc1cc(Nc2nc(Nc3ccc(N4CCN(C)CC4)cc3)ncc2C)ccc1Cl ?
A) 617

====

Measurement target: BRD4 (Homo sapiens, UniProt O60885)
Assay summary: Differential Scanning Fluorimetry (DSF), stability of BRD4 upon ligand binding
Condition notes: estimated
Binning of IC50 into classes: bottom bin = under 0.2 µM, middle bin = from 0.2 µM up to 3 µM, top bin = 3 µM and over

Observe how each entry below is paired with its result.
| Item smiles | Measurement target | Class label |
| --- | --- | --- |
| CN1CCN(c2ccc(Nc3ncc(C(N)=O)c(Nc4cccc(S(=O)(=O)NC(C)(C)C)c4)n3)cc2)CC1 | BRD4 (Homo sapiens, UniProt O60885) | middle bin |
| Cc1cnc(Nc2ccc(C(=O)NC3CCN(C)CC3)c(F)c2)nc1Nc1ccc2c(c1)N(S(=O)(=O)C(C)(C)C)CCC2 | BRD4 (Homo sapiens, UniProt O60885) | bottom bin |
| Cc1cnc(Nc2cc(F)c(N3CCN(C)CC3)c(F)c2)nc1Nc1ccc(Cl)c(NS(=O)(=O)C2(C)CC2)c1 | BRD4 (Homo sapiens, UniProt O60885) | bottom bin |

Q) Entry CCc1cnc(Nc2ccc(N3CCN(C)CC3)cc2)nc1Nc1cccc(S(=O)(=O)NC(C)(C)C)c1 belongs to which category?
A) middle bin

Q) Entry Cc1cnc(Nc2ccc(CC(=O)N3CCN(C)CC3)cc2)nc1Nc1ccc(Cl)cc1 belongs to which category?
A) middle bin

Q) Entry CCCc1cnc(Nc2ccc(N3CCN(C)CC3)cc2)nc1Nc1ccc(Cl)c(OC)c1 belongs to which category?
A) middle bin

====

Measurement target: BRD4 (Homo sapiens)
Assay summary: Differential Scanning Fluorimetry (DSF), stability of BRD4 upon ligand binding
Condition notes: estimated
Protocol: DSF=Differential Scanning Fluorimetry; provides a measure of the increased stability of BRD4 upon ligand binding The DSF experiment was run at 100 μM protein, 4 μM compound and 2% DMSO.
Parameter: pIC50
Bear in mind: pIC50 is minus log10 of a mol/L concentration; give just that figure.

| Compound | Measurement target | pIC50 |
| --- | --- | --- |
| CC(C)NS(=O)(=O)c1cccc(Nc2nc(Nc3ccc(N4CCN(C)CC4)cc3)nc3ccccc23)c1 | BRD4 (Homo sapiens) | 6.32 |
| CN1CCN(c2ccc(Nc3ncc(Cl)c(Nc4cccc(S(=O)(=O)NC5CC5)c4)n3)cc2)CC1 | BRD4 (Homo sapiens) | 6.80 |
| Cc1ccc(Nc2nc(Nc3ccc(N4CCN(C)CC4)cc3)ncc2C)cc1NS(=O)(=O)C(C)(C)C | BRD4 (Homo sapiens) | 7.74 |
| Cc1cnc(Nc2ccc(N3CCN(C)CC3)cc2)nc1Nc1cccc(NS(=O)(=O)c2ccccc2)c1 | BRD4 (Homo sapiens) | 6.05 |
| Cc1cnc(Nc2ccc(CC(=O)N3CCN(C)CC3)cc2)nc1Nc1ccc(Cl)c(Cl)c1 | BRD4 (Homo sapiens) | 6.24 |
| COc1ccc(Nc2nc(C)c(C)c(Nc3cccc(S(N)(=O)=O)c3)n2)cc1 | BRD4 (Homo sapiens) | 4.70 |
| CCOc1cccc(Nc2nc(Nc3ccc(N4CCN(C)CC4)cc3)ncc2Cl)c1 | BRD4 (Homo sapiens) | 6.10 |
| CC(C)NS(=O)(=O)c1cccc(Nc2nc(Nc3ccc(N4CCN(C)CC4)cc3)nc3c2COC3)c1 | BRD4 (Homo sapiens) | 4.85 |

Q) What pIC50 value was documented for this compound, Cc1cnc(Nc2ccc(N3CCN(C)CC3)cc2)nc1Nc1cccc(NS(=O)(=O)C(C)(C)C)c1 ?
A) 7.60

Q) What pIC50 value was documented for this compound, CCCS(=O)(=O)Nc1cccc(Nc2nc(Nc3ccc(N4CCN(C)CC4)cc3)ncc2C)c1 ?
A) 6.49

Q) What pIC50 value was documented for this compound, CC(C)Oc1cccc(Nc2nc(Nc3ccc(N4CCN(C)CC4)cc3)ncc2Cl)c1 ?
A) 6.27

Q) What pIC50 value was documented for this compound, CN1CCN(c2ccc(Nc3ncc(CO)c(Nc4cccc(NS(=O)(=O)C(C)(C)C)c4)n3)cc2)CC1 ?
A) 5.70

Q) What pIC50 value was documented for this compound, Cc1cnc(Nc2ccc(N3CCN(C)CC3)cc2)nc1Nc1ccc(Cl)c(NS(=O)(=O)C(C)(C)C)c1 [drawing 109] ?
A) 8.00

Q) What pIC50 value was documented for this compound, Cc1cnc(Nc2ccc(C(=O)NC3CCN(C)CC3)c(F)c2)nc1Nc1ccc(Cl)c(NS(=O)(=O)C2(C)CC2)c1 ?
A) 7.68

====

Measurement target: FLT3 (Homo sapiens)
Sequence (P36888 27-993): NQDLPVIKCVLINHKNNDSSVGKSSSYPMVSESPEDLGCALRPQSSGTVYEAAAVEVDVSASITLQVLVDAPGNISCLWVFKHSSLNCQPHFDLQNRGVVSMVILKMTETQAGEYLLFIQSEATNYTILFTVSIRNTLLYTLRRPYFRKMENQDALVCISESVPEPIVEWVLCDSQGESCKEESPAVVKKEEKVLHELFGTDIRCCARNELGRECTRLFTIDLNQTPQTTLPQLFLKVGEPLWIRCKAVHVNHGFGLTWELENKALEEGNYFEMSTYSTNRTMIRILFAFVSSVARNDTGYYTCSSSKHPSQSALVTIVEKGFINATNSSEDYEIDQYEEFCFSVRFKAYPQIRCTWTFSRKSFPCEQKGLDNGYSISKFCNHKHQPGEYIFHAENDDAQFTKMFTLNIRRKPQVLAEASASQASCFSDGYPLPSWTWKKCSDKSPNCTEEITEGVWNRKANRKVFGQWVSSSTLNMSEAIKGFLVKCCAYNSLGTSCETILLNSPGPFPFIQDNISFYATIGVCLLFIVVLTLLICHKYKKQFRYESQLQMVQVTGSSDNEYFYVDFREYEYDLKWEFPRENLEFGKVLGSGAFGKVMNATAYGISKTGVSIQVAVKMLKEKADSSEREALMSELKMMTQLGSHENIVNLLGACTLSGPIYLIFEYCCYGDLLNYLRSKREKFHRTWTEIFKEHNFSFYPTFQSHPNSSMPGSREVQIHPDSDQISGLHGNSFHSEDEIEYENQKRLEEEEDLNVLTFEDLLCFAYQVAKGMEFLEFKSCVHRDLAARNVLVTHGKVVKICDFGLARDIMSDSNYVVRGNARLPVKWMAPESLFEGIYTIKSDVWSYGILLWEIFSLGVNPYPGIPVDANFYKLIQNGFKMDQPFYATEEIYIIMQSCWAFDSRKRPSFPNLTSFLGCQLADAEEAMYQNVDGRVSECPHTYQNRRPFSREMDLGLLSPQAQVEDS
Listing of recorded pIC50 by entry.
Bear in mind: pIC50 is minus log10 of a mol/L concentration; give just that figure.

| Compound | pIC50 |
| --- | --- |
| Cc1cnc(Nc2ccc(N3CCN(C)CC3)c(F)c2)nc1Nc1ccc(Cl)c(NS(=O)(=O)C(C)(C)C)c1 | 7.97 |

Q) What pIC50 value was documented for this compound, Cc1cnc(Nc2ccc(N3CCN(C)CC3)cc2)nc1Nc1ccc(Cl)c(NS(=O)(=O)C(C)(C)C)c1 [drawing 109] ?
A) 8.01

Q) What pIC50 value was documented for this compound, Cc1cnc(Nc2ccc(N3CCN(C)CC3)cc2)nc1Nc1cccc(NS(=O)(=O)C(C)(C)C)c1 ?
A) 9.04

====

Measurement target: BRD4 (Homo sapiens)
Assay summary: Differential Scanning Fluorimetry (DSF), stability of BRD4 upon ligand binding
Condition notes: estimated
Listing of recorded log10 IC50 by entry.
Short version: log10 scale, IC50, nM.

Use the examples below as a reference point.
| Item smiles | Parameter | Result value |
| --- | --- | --- |
| Cc1ccc(Nc2nc(Nc3ccc(C(=O)NC4CCN(C)CC4)c(F)c3)ncc2C)cc1S(=O)(=O)NC1CCC1 | log10 IC50 | 1.73 |
| Cc1ccc(Nc2nc(Nc3ccc(N4CCN(C)CC4)cc3)nc3ccccc23)cc1S(=O)(=O)NC(C)(C)C | log10 IC50 | 2.30 |
| CC(C)S(=O)(=O)Nc1cccc(Nc2nc(Nc3ccc(N4CCN(C)CC4)cc3)nc3c2CCC3)c1 | log10 IC50 | 2.89 |

Q) What log10 IC50 value was documented for this molecule, Cc1cnc(Nc2ccc(N3CCN(C)CC3)cc2)nc1Nc1cccc(NC(=O)C(C)(C)C)c1 ?
A) 3.18

Q) What log10 IC50 value was documented for this molecule, COc1cc(Nc2nc(Nc3ccc(N4CCN(C)CC4)cc3)ncc2C(C)C)ccc1Cl ?
A) 3.87

Q) What log10 IC50 value was documented for this molecule, Cc1ccc(Nc2nc(Nc3ccc(N4CCN(C)CC4)cc3)ncc2C)cc1S(=O)(=O)NC(C)(C)C ?
A) 1.48

Q) What log10 IC50 value was documented for this molecule, Cc1cnc(Nc2ccc(C3CCN(C)CC3)cc2)nc1Nc1cccc(NS(=O)(=O)C(C)(C)C)c1 ?
A) 1.79

Q) What log10 IC50 value was documented for this molecule, Cc1cnc(Nc2cc(F)c(N3CCN(C)CC3)c(F)c2)nc1Nc1cccc(NS(=O)(=O)C(C)(C)C)c1 ?
A) 0.80

Q) What log10 IC50 value was documented for this molecule, Cc1cnc(Nc2ccc(N3CCN(C)CC3)cc2)nc1Nc1ccc(C(=O)NC2CC2)cc1 ?
A) 2.18

Q) What log10 IC50 value was documented for this molecule, Cc1cnc(Nc2ccc(N3CCN(C)CC3)c(C(F)(F)F)c2)nc1Nc1ccc(Cl)c(NS(=O)(=O)C(C)(C)C)c1 ?
A) 3.69

Q) What log10 IC50 value was documented for this molecule, CN1CCC(NC(=O)c2ccc(Nc3ncc(F)c(Nc4ccc(Cl)c(NS(=O)(=O)C(C)(C)C)c4)n3)cc2F)CC1 ?
A) 1.61

The origin of these recorded values is patent US10526291B2.
